The reported numbers originate from paper PMC6803667.

- target: hYAP-WW1 (Homo sapiens, UniProt P46937)
- Construct: comprising aminoacids 165–209 and 228–271 respectively (UniProtKB/Swiss-Prot code Q7Z574); GST-His (pETM-30, TEV site) (N, cleaved yes); made in house
- Sequence (P46937 165-209): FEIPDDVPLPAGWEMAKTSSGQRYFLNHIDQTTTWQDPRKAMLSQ
- assaySummary: biochemical
- Assay type: binding
Residues, ends and D or L forms follow the SMILES beside them.
assayReadout: Kd (µM)

• CC(=O)N1CCC[C@H]1C(=O)N1CCC[C@H]1C(=O)N1CCC[C@H]1C(=O)N[C@@H](Cc1ccc(O)cc1)C(N)=O [PPPY] (Ac-PPPY-NH2) = 320

====

- target: hNEDD4-WW3 (Homo sapiens, UniProt P46934)
- Construct: comprising aminoacids 834–878 (UniProtKB/Swiss-Prot code P46934); GST-His (pETM-30, TEV site) (N, cleaved yes); made in house; host or cells: E. coli BL21/DE3 is printed only for the pETM-11 NMR construct
- Sequence (P46934 834-878): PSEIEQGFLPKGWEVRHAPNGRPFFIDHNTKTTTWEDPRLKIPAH
- assaySummary: biochemical
- Assay type: binding
pKd: −log10 of the molar value. Residues, ends and D or L forms follow the SMILES beside them.
assayReadout: pKd

* CC(=O)N1CCC[C@H]1C(=O)N1CCC[C@H]1C(=O)N1CCC[C@H]1C(=O)N[C@@H](Cc1ccc(O)cc1)C(N)=O [PPPY] (Ac-PPPY-NH2) | 3.70
